- Test system: cerebellar granule neurons
- details: at all three concentrations

{"molecule": "O=C1Nc2ccccc2C1=CC=Cc1ccccc1", "neuroprotective activity (in words)": "moderately efficacious"}
{"molecule": "O=C1Nc2ccccc2/C1=C\\c1cc(Br)cc(Br)c1", "neuroprotective activity (in words)": "not protective"}
{"molecule": "COc1cc(/C=C2\\C(=O)Nc3ccccc32)cc(OC)c1OC", "neuroprotective activity (in words)": "not protective"}
{"molecule": "O=C1Nc2ccc([N+](=O)[O-])cc2/C1=C/c1ccccc1 [Compound 25, (Z)-3-Benzylidene-5-nitroindolin-2-one]", "neuroprotective activity (in words)": "moderately efficacious"}
